- System: U2OS
- TEST DESCRIPTION: mean HPG incorporation (global translation) relative to DMSO (% of DMSO); higher = more protein synthesis
- CONDITION: 1 µM; 24 h
Measured mean HPG incorporation, listed per entry for reference.
Answer as a number with no unit attached.

Result for COc1cc2c(cc1C(F)(F)F)N(C(=O)Nc1cc(F)cc(-c3cccnc3)c1)CC2 , tested on U2OS, mean HPG incorporation: 95.1

Measured mean HPG incorporation (U2OS), entry N#CC(c1ccnc(NCCc2cccnc2)n1)c1nc2ccccc2s1 (centres undefined) [JNK Inhibitor V] : 122

// compound COc1cc(COc2cc(N)c(Cl)cc2C(=O)CCC2CCN(CCNS(C)(=O)=O)CC2)cc(OC)c1 , assay U2OS, mean HPG incorporation value: 82.2

Per the reported U2OS data, CC(C)(C)c1nc(-c2cccc(NS(=O)(=O)c3c(F)cccc3F)c2F)c(-c2ccnc(N)n2)s1 has mean HPG incorporation of 50.8

====

- Tested on: U2OS
- TEST DESCRIPTION: mean OPP incorporation (global translation) relative to DMSO (% of DMSO); higher = more protein synthesis
- CONDITION: 3 µM; 24 h
REPORTED PROPERTY: mean OPP incorporation
Quick one: just the number, no unit, thanks!

SMILES CODE: COc1nc(-c2ccc3c(c2)OCO3)n(-c2ccc(NC(=O)CSc3ccccc3)cc2)n1
ASSAY TARGET: U2OS
mean OPP incorporation: 117

Looking up O=C(Nc1ccc(OC(F)(F)F)cc1)c1sccc1NCc1ccnc2ccccc12 , I see its mean OPP incorporation listed as 101

// field: mean OPP incorporation; key: CC[C@@H]1/C=C(\C)C[C@H](C)C[C@H](OC)[C@H]2O[C@@](O)(C(=O)C(=O)N3CCCC[C@H]3C(=O)O[C@H](/C(C)=C/[C@@H]3CC[C@H](Cl)[C@H](OC)C3)[C@H](C)[C@@H](O)CC1=O)[C@H](C)C[C@@H]2OC ; value = 123

====

- Test system: U2OS
- TEST DESCRIPTION: mean OPP incorporation (global translation) relative to DMSO (% of DMSO); higher = more protein synthesis
- CONDITION: 3 µM; 24 h
A collection of molecules and their measured mean OPP incorporation
Kindly provide the number alone.

Record excerpt, results attached:
SMILES CODE: Cc1cc(CS(=O)(=O)c2ccccc2)cc(OCc2ccc(CN3CCC[C@@H]3CO)cc2)c1
READING: 117

SMILES CODE: CC(C)n1nc(-c2ccc3oc(N)nc3c2)c2c(N)ncnc21
READING: 29.2

SMILES CODE: Cc1cn(-c2cc(NC(=O)c3ccc(C)c(Nc4nccc(-c5cccnc5)n4)c3)cc(C(F)(F)F)c2)cn1
READING: 120

We next turn to a different molecule, shown below.
Reported mean OPP incorporation ( CNC(=O)c1cccc(-c2ccc3c(N4CCOC[C@@H]4C)nc(N4CCOC[C@@H]4C)nc3n2)c1 ) = 36.3

====

- Test system: U2OS
- TEST DESCRIPTION: mean OPP incorporation (global translation) relative to DMSO (% of DMSO); higher = more protein synthesis
- CONDITION: 10 µM; 24 h
REPORTED PROPERTY: mean OPP incorporation
Answer with a bare number; do not write a unit.

COMPOUND: CCCc1cc(C)[nH]c(=O)c1CNC(=O)c1cc(-c2ccc(N3CCN(C(C)C)CC3)nc2)cc2c1cnn2C(C)C
mean OPP incorporation: 122
//
COMPOUND: Cc1c(C)c2c(c(C)c1O)CC[C@](C)(CN1CCN(c3cc(N4CCCC4)nc(N4CCCC4)n3)CC1)O2
mean OPP incorporation: 111
//
COMPOUND: Nc1ccc(-c2cccc3c(=O)cc(N4CCOCC4)oc23)cc1
mean OPP incorporation: 54.1

Next:
Form field mean OPP incorporation, entry N#CC(c1ccnc(NCCc2cccnc2)n1)c1nc2ccccc2s1 (centres undefined) : 110

====

- System: U2OS
- TEST DESCRIPTION: nuclei count in HPG assay relative to DMSO (% of DMSO); higher = more viable cells
- CONDITION: 1 µM; 24 h
Where a name gives a salt, the structure may show the parent alone.
// values below are reported nuclei count in HPG assay

Examples with their reported nuclei count in HPG assay follow.
COMPOUND: C[C@]12CC[C@@H]3c4ccc(O)cc4C[C@@H](CCCCCCCCC[S+]([O-])CCCC(F)(F)C(F)(F)F)[C@H]3[C@@H]1CC[C@@H]2O (stereo not given in full)
ASSAY TARGET: U2OS
nuclei count in HPG assay: 97
//
COMPOUND: Oc1ccc(Nc2nc(-c3ccc(Cl)cc3)cs2)cc1
ASSAY TARGET: U2OS
nuclei count in HPG assay: 99

Per the record, Cc1ccc(NC(=O)c2ccc(CN3CCN(C)CC3)cc2)cc1Nc1nccc(-c2cccnc2)n1 [Imatinib (STI571)] has nuclei count in HPG assay of 102

Value of measured nuclei count in HPG assay for the entry CC(C)(C)c1nc(-c2cccc(NS(=O)(=O)c3c(F)cccc3F)c2F)c(-c2ccnc(N)n2)s1 : 96.6

Input CC(=O)O[C@@H]1C[C@H]2C(C)(C)C(=O)C=C[C@]2(C)[C@H]2CC[C@@]3(C)[C@H](c4ccoc4)OC(=O)[C@H]4O[C@]43[C@@]21C . Output nuclei count in HPG assay: 103

// nuclei count in HPG assay lookup, compound = Cc1c(-c2ccc(O)cc2)n(Cc2ccc(OCCN3CCCCCC3)cc2)c2ccc(O)cc12 [Bazedoxifene HCl] , result: 103

The reported value for O=c1cc(N2CCOCC2)oc2c(-c3cccc4c3sc3ccccc34)cccc12 in terms of nuclei count in HPG assay is 96.8

For record COc1ccccc1N1CCN(CCN2C(=O)c3ccccc3C(C)(C)C2=O)CC1 [ARC 239 dihydrochloride] the listed nuclei count in HPG assay is 106

get_value(item= Nc1ccc(-c2cccc3c(=O)cc(N4CCOCC4)oc23)cc1 , readout=nuclei count in HPG assay) returns 108

The recorded nuclei count in HPG assay for COc1nc(-c2ccc3c(c2)OCO3)n(-c2ccc(NC(=O)CSc3ccccc3)cc2)n1 is 107

The recorded nuclei count in HPG assay for entry COc1cc(NC(=O)c2ccccn2)ccc1Cl equals 103

Measured nuclei count in HPG assay, C[C@@H]1CN(CC(=O)Nc2ccc3c(c2)Cc2cccc(-c4cc(=O)cc(N5CCOCC5)o4)c2S3)C[C@H](C)O1 : 98.7

compound CNC(=O)c1cccc(-c2ccc3c(N4CCOC[C@@H]4C)nc(N4CCOC[C@@H]4C)nc3n2)c1 , nuclei count in HPG assay observed: 84.1

Value of nuclei count in HPG assay reported for the compound Cc1cn(-c2cc(NC(=O)c3ccc(C)c(Nc4nccc(-c5cccnc5)n4)c3)cc(C(F)(F)F)c2)cn1 is 101

Note to self: nuclei count in HPG assay recorded for C=CC[C@@H]1/C=C(\C)C[C@H](C)C[C@H](OC)[C@H]2O[C@@](O)(C(=O)C(=O)N3CCCC[C@H]3C(=O)O[C@H](/C(C)=C/[C@@H]3CC[C@@H](O)[C@H](OC)C3)[C@H](C)[C@@H](O)CC1=O)[C@H](C)C[C@@H]2OC was 102

====

- Tested on: U2OS
- TEST DESCRIPTION: mean OPP incorporation (global translation) relative to DMSO (% of DMSO); higher = more protein synthesis
- CONDITION: 10 µM; 24 h
REPORTED PROPERTY: mean OPP incorporation

Form: molecule = CC[C@@H]1/C=C(\C)C[C@H](C)C[C@H](OC)[C@H]2O[C@@](O)(C(=O)C(=O)N3CCCC[C@H]3C(=O)O[C@H](/C(C)=C/[C@@H]3CC[C@H](Cl)[C@H](OC)C3)[C@H](C)[C@@H](O)CC1=O)[C@H](C)C[C@@H]2OC ; mean OPP incorporation = 124

Item: CC(C)n1nc(-c2cc3cc(O)ccc3[nH]2)c2c(N)ncnc21 | mean OPP incorporation: 27.3

Noted for CNC(=O)c1cccc(-c2ccc3c(N4CCOC[C@@H]4C)nc(N4CCOC[C@@H]4C)nc3n2)c1 : its mean OPP incorporation reads 35.6

Sample CCn1c(-c2nonc2N)nc2cnc(Oc3cccc(NC(=O)c4ccc(OCCN5CCOCC5)cc4)c3)cc21 ; mean OPP incorporation observed: 97.5

// C[C@@H]1CN(CC(=O)Nc2ccc3c(c2)Cc2cccc(-c4cc(=O)cc(N5CCOCC5)o4)c2S3)C[C@H](C)O1 : mean OPP incorporation value = 102

Looking up CC1=C(/C=C/C(C)=C/C=C/C(C)=C/C(=O)Nc2ccc(O)cc2)C(C)(C)CCC1 [Fenretinide] , I found its mean OPP incorporation recorded as 117

Sample Cn1cc(-c2ccc3ncc(Cc4ccc5ncccc5c4)n3n2)cn1 ; mean OPP incorporation observed: 124

// mean OPP incorporation value for C[C@]12CC[C@@H]3c4ccc(O)cc4C[C@@H](CCCCCCCCC[S+]([O-])CCCC(F)(F)C(F)(F)F)[C@H]3[C@@H]1CC[C@@H]2O (stereo not given in full) : 115

Entry under test: O=C(Nc1ccc(OC(F)(F)F)cc1)c1sccc1NCc1ccnc2ccccc12 . Its mean OPP incorporation was 114

Kindly note the recorded mean OPP incorporation for C=CC[C@@H]1/C=C(\C)C[C@H](C)C[C@H](OC)[C@H]2O[C@@](O)(C(=O)C(=O)N3CCCC[C@H]3C(=O)O[C@H](/C(C)=C/[C@@H]3CC[C@@H](O)[C@H](OC)C3)[C@H](C)[C@@H](O)CC1=O)[C@H](C)C[C@@H]2OC , which is 134

The value of mean OPP incorporation measured for the molecule COc1cc(NC(=O)c2ccccn2)ccc1Cl turned out to be 70.9

mean OPP incorporation reported for this molecule COc1cc(COc2cc(N)c(Cl)cc2C(=O)CCC2CCN(CCNS(C)(=O)=O)CC2)cc(OC)c1 : 120

// mean OPP incorporation lookup, molecule = COc1cc(C)c(/C=C/C(C)=C/C=C/C(C)=C/C(=O)O)c(C)c1C , result: 109

Just so you know, measured mean OPP incorporation for COc1cc2c(cc1C(F)(F)F)N(C(=O)Nc1cc(F)cc(-c3cccnc3)c1)CC2 came out at 117

# mean OPP incorporation (molecule: CCOc1cc(C(=O)Nc2ccc(Cl)c(-c3nc4ccccc4[nH]3)c2)cc(OCC)c1OCC ) is 121
